Tested on: Plasmodium falciparum
Assay: Antimalarial activity against chloroquine and pyrimethamine-resistant Plasmodium falciparum K1 by [3H]hypoxanthine incorporation assay
Type: functional, organism-based
pIC50: −log10 of the molar value.
# pIC50 >= 6 gives MET, anything below gives NOT MET

[[record]]
smiles_data = "Cn1cc2ccccc2c2c3ccccc3nc1-2.I"
measured_target = "Plasmodium falciparum"
assigned_class = "MET"

[[record]]
smiles_data = "Cn1cccc2nc3ccccc3c1-2"
measured_target = "Plasmodium falciparum"
assigned_class = "MET"

[[record]]
smiles_data = "Cn1cc2ccccc2c2nc3ccccc3c1-2"
measured_target = "Plasmodium falciparum"
assigned_class = "MET"

[[record]]
smiles_data = "Cn1ccc2nc3ccccc3c-2c1"
measured_target = "Plasmodium falciparum"
assigned_class = "NOT MET"


Let's switch to this compound now.
Asked: Could you verify whether the entry `Cn1cccc2c3ccccc3nc1-2` shows pIC50 of no less than 6?
Given back: NOT MET
